// provenance: patent US11472778B2

Target: GT3a NS3/4A protease (Hepatitis C virus genotype 3a)
Construct: drug-resistant variant D168A, and GT3a NS3/4A protease; made in house; host or cells: Escherichia coli BL21(DE3)
Assay: biochemical
Settings: read-out: Ki (nM) GT3a NS3/4A Protease; Table 3
Quick list: Ki per entry.
Write the number in nM without appending the unit.

{"compound": "COc1ccc2nc(C)c(O[C@@H]3C[C@H]4C(=O)N[C@]5(C(=O)NS(=O)(=O)C6(C)CC6)C[C@H]5/C=C\\CCCCC[C@H](NC(=O)OC(C)(C)C)C(=O)N4C3)nc2c1 [Compound 19b]", "reported-measurement": 119}

What the record says about COc1ccc2nc(C(F)(F)F)c(O[C@@H]3C[C@H]4C(=O)N[C@]5(C(=O)NS(=O)(=O)C6(C)CC6)C[C@H]5/C=C\CCCCC[C@H](NC(=O)OC(C)(C)C)C(=O)N4C3)nc2c1 [Compound 19d] : Ki is 231

----------
Biological target: GT3a NS3/4A protease (Hepatitis C virus genotype 3a, UniProt Q81495)
Construct: drug-resistant variant D168A, and GT3a NS3/4A protease; made in house; host or cells: Escherichia coli BL21(DE3)
Sequence (Q81495 1033-1214): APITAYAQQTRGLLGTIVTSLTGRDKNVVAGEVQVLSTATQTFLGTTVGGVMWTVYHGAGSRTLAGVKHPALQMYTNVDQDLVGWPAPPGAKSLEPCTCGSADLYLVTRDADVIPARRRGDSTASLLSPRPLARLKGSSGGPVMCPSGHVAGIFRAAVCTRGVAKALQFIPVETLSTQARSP
Test: biochemical
Experimental: For each assay, 2 nM of NS3/4A protease (GT1, D168A and GT3) was pre-incubated at room temperature for 1 h with increasing concentration of inhibitors in assay buffer [50 mM Tris, 5% glycerol, 10 mM DTT, 0.6 mM LDAO, and 4% dimethyl sulfoxide]. Inhibition assays were performed in nonbinding surface 96-well black half-area plates (Corning) in a reaction volume of 60 μt. […] Three independent data sets were collected for each inhibitor with each protease construct.
measured-metric: pKi
// returns pKi (minus log10 of molar concentration), number only

// worked examples, pKi included
{"compound": "COc1ccc2nc(C(F)(F)F)c(O[C@@H]3C[C@H]4C(=O)N[C@]5(C(=O)NS(=O)(=O)C6CC6)C[C@H]5/C=C\\CCCCC[C@H](NC(=O)OC5CCCC5)C(=O)N4C3)nc2c1 [Compound 22d]", "pKi": 6.12}
{"compound": "COc1ccc2nc(Cl)c(O[C@@H]3C[C@H]4C(=O)N[C@]5(C(=O)NS(=O)(=O)C6CC6)C[C@H]5/C=C\\CCCCC[C@H](NC(=O)OC(C)(C)C)C(=O)N4C3)nc2c1 [Compound 18c]", "pKi": 7.17}

From here, focus on the item given below.
What the record says about CCc1nc2ccc(OC)cc2nc1O[C@@H]1C[C@H]2C(=O)N[C@]3(C(=O)NS(=O)(=O)C4(C)CC4)C[C@H]3/C=C\CCCCC[C@H](NC(=O)OC3CCCC3)C(=O)N2C1 [Compound 23a] : pKi is 6.73

----------
Test system: HCV replicon A156T variant in Huh7 cells
Experiment: microbe, parasite or virus in culture
Format: cell-based, Hepatitis C virus
Conditions: Table 4; relative to WT replicon
measured-metric: Replicon EC50 (Fold change) A156T

{"compound": "COc1ccc2nc(C(C)C)c(O[C@@H]3C[C@H]4C(=O)N[C@]5(C(=O)NS(=O)(=O)C6CC6)C[C@H]5/C=C\\CCCCC[C@H](NC(=O)OC(C)(C)C)C(=O)N4C3)nc2c1 [Compound 18e]", "reported-measurement": "(18) fold"}
{"compound": "COc1ccc2nc(C(F)(F)F)c(O[C@@H]3C[C@H]4C(=O)N[C@]5(C(=O)NS(=O)(=O)C6CC6)C[C@H]5/C=C\\CCCCC[C@H](NC(=O)OC(C)(C)C)C(=O)N4C3)nc2c1 [Compound 18d]", "reported-measurement": "(18) fold"}

----------
Molecular target: GT1a D168A NS3/4A protease
Format: biochemical, Hepatitis C virus
Details: fold change in Ki, D168A relative to WT
Quick rule for you: Ki D168A (fold change) under 20 gets Criterion met, anything else gets Criterion not met.

In plain terms, does `C=C[C@@H]1C[C@]1(NC(=O)[C@@H]1C[C@@H](Oc2nc3cc(OC)ccc3nc2C(C)C)CN1C(=O)[C@@H](NC(=O)OC(C)(C)C)C(C)(C)C)C(=O)NS(=O)(=O)C1CC1` come in under 20 for Ki D168A (fold change)?
Criterion not met

----------
Target: wild-type GT1a NS3/4A protease (UniProt P27958, C1185S, species not given)
Construct: Ki (nM) GT1a WT NS3/4A Protease
Type: biochemical, Hepatitis C virus
Settings: read-out: Ki (nM) GT1a WT NS3/4A Protease; Table 3
Method: For each assay, 2 nM of NS3/4A protease (GT1, D168A and GT3) was pre-incubated at room temperature for 1 h with increasing concentration of inhibitors in assay buffer [50 mM Tris, 5% glycerol, 10 mM DTT, 0.6 mM LDAO, and 4% dimethyl sulfoxide]. Inhibition assays were performed in nonbinding surface 96-well black half-area plates (Corning) in a reaction volume of 60 μt. […] Three independent data sets were collected for each inhibitor with each protease construct. […]
Quick list: Ki per entry.
Write the number in nM without appending the unit.

{"molecule": "COc1ccc2nc(C(C)C)c(O[C@@H]3C[C@H]4C(=O)N[C@]5(C(=O)NS(=O)(=O)C6(C)CC6)C[C@H]5/C=C\\CCCCC[C@H](NC(=O)OC(C)(C)C)C(=O)N4C3)nc2c1 [Compound 19e]", "measured-metric": "Ki", "unit-text": "nM", "reported-measurement": 0.58}
{"molecule": "CCc1nc2ccc(OC)cc2nc1O[C@@H]1C[C@H]2C(=O)N[C@]3(C(=O)NS(=O)(=O)C4CC4)C[C@H]3/C=C\\CCCCC[C@H](NC(=O)OC(C)(C)C)C(=O)N2C1 [Compound 2]", "measured-metric": "Ki", "unit-text": "nM", "reported-measurement": 3.29}
{"molecule": "COc1ccc2nc(C)c(O[C@@H]3C[C@H]4C(=O)N[C@]5(C(=O)NS(=O)(=O)C6CC6)C[C@H]5/C=C\\CCCCC[C@H](NC(=O)OC5CCCC5)C(=O)N4C3)nc2c1 [Compound 22b]", "measured-metric": "Ki", "unit-text": "nM", "reported-measurement": 0.93}

From here, focus on the item given below.
What the record says about COc1ccc2nc(C(C)C)c(O[C@@H]3C[C@H]4C(=O)N[C@]5(C(=O)NS(=O)(=O)C6CC6)C[C@H]5/C=C\CCCCC[C@H](NC(=O)OC(C)(C)C)C(=O)N4C3)nc2c1 [Compound 18e] : Ki is 4.27

----------
System: HCV replicon A156T variant in Huh7 cells
Assay: microbe, parasite or virus in culture
Type: cell-based, Hepatitis C virus
Settings: Hepatitis C virus, Huh-7, 96 h, read-out: Replicon EC50 (nM) A156T, Table 2; Huh7 cells, luciferase 96 h
Quick list: EC50 per entry.
Write the number in nM without appending the unit.

// worked examples, EC50 included
{"compound": "COc1ccc2nc(C(F)(F)F)c(O[C@@H]3C[C@H]4C(=O)N[C@]5(C(=O)NS(=O)(=O)C6CC6)C[C@H]5/C=C\\CCCCC[C@H](NC(=O)OC5CCCC5)C(=O)N4C3)nc2c1 [Compound 22d]", "target-entity": "HCV replicon A156T variant in Huh7 cells", "unit-text": "nM", "EC50": 117}
{"compound": "COc1ccc2nc(C(C)C)c(O[C@@H]3C[C@H]4C(=O)N[C@]5(C(=O)NS(=O)(=O)C6CC6)C[C@H]5/C=C\\CCCCC[C@H](NC(=O)OC5CCCC5)C(=O)N4C3)nc2c1 [Compound 22e]", "target-entity": "HCV replicon A156T variant in Huh7 cells", "unit-text": "nM", "EC50": 32.1}
{"compound": "COc1ccc2nc(C(C)C)c(O[C@@H]3C[C@H]4C(=O)N[C@]5(C(=O)NS(=O)(=O)C6(C)CC6)C[C@H]5/C=C\\CCCCC[C@H](NC(=O)OC(C)(C)C)C(=O)N4C3)nc2c1 [Compound 19e]", "target-entity": "HCV replicon A156T variant in Huh7 cells", "unit-text": "nM", "EC50": 21.2}
{"compound": "CCc1nc2ccccc2nc1O[C@@H]1C[C@H]2C(=O)N[C@]3(C(=O)NS(=O)(=O)C4CC4)C[C@H]3/C=C\\CCCCC[C@H](NC(=O)OC3CCCC3)C(=O)N2C1 [Compound 22g]", "target-entity": "HCV replicon A156T variant in Huh7 cells", "unit-text": "nM", "EC50": 24.6}

From here, focus on the item given below.
What the record says about COc1ccc2nc(Cl)c(O[C@@H]3C[C@H]4C(=O)N[C@]5(C(=O)NS(=O)(=O)C6CC6)C[C@H]5/C=C\CCCCC[C@H](NC(=O)OC(C)(C)C)C(=O)N4C3)nc2c1 [Compound 18c] : EC50 is 16.2

----------
Biological target: wild-type GT1a NS3/4A protease (UniProt P27958)
Construct: Ki WT; other: wild-type HCV NS3/4A protease
Format: biochemical, Hepatitis C virus
Details: read-out: Ki WT; wild-type HCV NS3/4A protease
Quick list: pKi per entry.
// returns pKi (minus log10 of molar concentration), number only

{"compound": "C=C[C@@H]1C[C@]1(NC(=O)[C@@H]1C[C@@H](Oc2nc3cc(OC)ccc3nc2C(C)C)CN1C(=O)[C@@H](NC(=O)OC(C)(C)C)C(C)(C)C)C(=O)NS(=O)(=O)C1CC1 [Compound 9c]", "pKi": 7.49}

What the record says about C=C[C@@H]1C[C@]1(NC(=O)[C@@H]1C[C@@H](Oc2nc3cc(OC)ccc3nc2C(C)C)CN1C(=O)[C@@H](NC(=O)OC1CCCC1)C(C)(C)C)C(=O)NS(=O)(=O)C1(C)CC1 [Compound 12c] : pKi is 7.68

What the record says about C=C[C@@H]1C[C@]1(NC(=O)[C@@H]1C[C@@H](Oc2nc3cc(OC)ccc3nc2CC)CN1C(=O)[C@@H](NC(=O)OC(C)(C)C)C(C)(C)C)C(=O)NS(=O)(=O)C1CC1 [Compound 3] : pKi is 7.72
